Assay: growth inhibitors of H69AR lung tumor, primary screen, human, duplicate replicates (AID 580);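 note: 100% = mean luminescence of untreated wells and 0% = no signal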
Conditions: H69AR lung tumor cells viability, ATP luminescence, 72 h; at 10 µM; stronger effect = lower value
Entries and their viability values follow.
Give a bare numeral; the unit % is implied.

Examples with their reported viability follow.
FC(F)Oc1ccc(-c2csc(Cc3nnc4n3CCCCC4)n2)cc1 ... 97.2
Cc1ccc(/C=c2\sc3nc(-c4ccccc4Br)nn3c2=O)o1 ... 95.5
O=C(CSc1nc(-c2ccccc2)cs1)NC(=O)NCc1ccco1 ... 76.7
COc1cccc2cc(C(=O)C3=C(O)C(=O)N(CCCN4CCOCC4)C3c3ccncc3)oc12 (configuration not stated) ... 96.8
CC(C)(C)OC(=O)N1CCCC1C(=O)N1CCc2ccccc21 (configuration not stated) ... 84.9
COc1ccc(CCn2c(=N)c(C#N)cc3c(=O)n4ccccc4nc32)cc1 ... 65.2

// viability value for O=C(CN1C(=O)C2CC=C(Cl)CC2C1=O)Nc1ccc(C(=O)O)cc1 (configuration not stated) : 94.7

Entry CCOP(=O)(c1ccc(N(C)C)cc1)C(O)c1ccccc1OC (configuration not stated) — recorded viability = 98.7

viability in this record for O=C(NCc1cccnc1)C1c2ccccc2C(=O)N1Cc1ccco1 (configuration not stated) : 92.9

Field viability (entry CCc1nnc2sc(-c3cc(-c4ccccc4)nc4ccccc34)nn12 ) reads 86.9

Sample Cc1cc(NC(=O)COC(=O)C2COc3ccccc3O2)no1 (configuration not stated) ; viability observed: 96.7

# viability of Cc1nnc(NC(=O)Nc2cccc(Cl)c2)s1 = 63

CC(=O)C1=C(C)NC(C)=C(C(C)=O)C1c1cccs1 yielded viability of 87

----------
Assay: growth inhibitors of H69AR lung tumor, primary screen, human, duplicate replicates (AID 580);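 note: 100% = mean luminescence of untreated wells and 0% = no signal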
Conditions: H69AR lung tumor cells viability, ATP luminescence, 72 h; at 10 µM; stronger effect = lower value
Attribute: viability
Supply the numeric figure in %, leaving out any unit text.

Here's what some known entries look like.
O=C(NCCCN1CCOCC1)C1CC(=O)N(CCc2ccccc2)C1 (centres undefined) ... 94.8
Cc1ccc(S(=O)(=O)C2(C(=O)Nc3nccs3)CC2)cc1 ... 101
Cc1noc(C)c1S(=O)(=O)N1CCC(C(=O)Nc2ccccn2)CC1 ... 89.5

Summary for this compound, Cc1c(C(=O)O)c(-c2ccccc2)nn1-c1ccccc1 : viability is 92.1

Noted for CC(O)c1c(OCc2ccccc2)ncnc1OCc1ccccc1 (centres undefined) : its viability reads 93.8

Per the record, CCc1c(C(=O)N2CCOCC2)csc1C has viability of 106

Form field viability, entry CCCCn1cnc2c(cnn2-c2ccc(Cl)cc2)c1=O : 86.1

# compound CC(NC(=O)COc1ccccc1)C(=O)NC1=NCCS1 (centres undefined) ; its viability = 94.4

response.value for CCn1c(SCc2nc3ccccc3c(=O)[nH]2)nnc1-c1cccnc1 (field: viability) = 95.2

Lab note: measured viability of Cc1cc(C(F)(F)F)nn1Cc1ccc(C(=O)NCc2ccco2)o1 was 89.9

Record summary for CC(C)OC(=O)C(CC(=O)O)NCc1ccccc1 (centres undefined) : reported viability = 91.6

Sample COc1ccc2nc(N3CCC(C)CC3)c(C#N)cc2c1 ; viability observed: 26.8

// COc1ccccc1-c1cc(C(=O)NCCCn2ccnc2)no1 : viability value = 97.4

Entry O=C(Nc1ccc(CN2CCCCC2)cc1)c1ccc2c(c1)OCO2 , viability reported as 91.6

Looking up Cc1nc(NC(=O)C2CC3CCCC(C2)C3=O)sc1C (centres undefined) , I see its viability listed as 82.8

Entry CCOc1cc(S(=O)(=O)N2CCC(Cc3ccccc3)CC2)c(OCC)cc1-n1cnnn1 — recorded viability = 99.7

Field viability (entry O=C1N(CCCCN2C(=O)C3(OCCO3)c3ccccc32)c2ccccc2C12OCCO2 ) reads 84.9

In plain terms, O=C(NCc1ccccc1)N1CCn2c(nc3ccccc32)C1 has a documented viability of 92.9

Entry under test: COC(=O)C1=C(N)Oc2cc(C)[nH]c(=O)c2C1c1ccncc1 (centres undefined) . Its viability was 94.7

Form field viability, entry CN(C)S(=O)(=O)c1ccc(C(=O)NCc2cccs2)cc1 : 101

----------
Quick reference: differential viability (reversal) of the listed items.
Experiment: reversal of MRP1-mediated doxorubicin resistance, pilot screen, H69AR cells, doxorubicin co-treatment (AID 601)
Settings: H69AR cells + 2 uM doxorubicin, CellTiter-Glo, 72 h; at 10 µM; stronger effect = higher value
// return numeric value only (unit: %, not printed)

CCCCCOC(=O)C1=C(C)N(C)C(=O)NC1c1cc(Br)c(O)c(OC)c1 (stereo not drawn) ... -3.32
Cn1c(=O)c2c(nc(SCC(=O)O)n2Cc2cccc(C(F)(F)F)c2)n(C)c1=O ... 5.41
Cc1cc2c(cc1C)C(=O)NC(C)(C)C2 ... -13.8
C/C(=N\O)C(=O)NCCCNCCCN(C)C ... -3.41
COc1cc(NS(=O)(=O)c2ccc(Br)s2)cc(OC)c1 ... 5.59
COc1ccc2[nH]c(=O)c(CN(Cc3cccs3)S(=O)(=O)c3cccc4nsnc34)cc2c1 ... -0.125
CC(C)(C)OC(=O)N1CCC(C(=O)N[C@H](Cc2ccccc2)C(=O)O)CC1 ... 3.02
CCCN1C2CCCC1CC(NC(=O)Nc1cccc(C(C)=O)c1)C2 (stereo not drawn) ... -2.24
Cc1ccc(S(=O)(=O)N(C)Cc2cc3ccccc3[nH]c2=O)cc1 ... 3.6
Oc1ccc2cccnc2c1 ... 5.68

Notebook: O=C(c1ccco1)N1CCN(S(=O)(=O)c2ccc3c(c2)CCN3C(=O)C2CCC2)CC1 , differential viability (reversal) read as 11.7

Recorded result, CCOc1cc(C(=O)NCc2ccncc2)cc(OCC)c1OCC , differential viability (reversal): 2.97

differential viability (reversal) measured on O=C(Nc1cc(Cl)ccc1Cl)c1noc2c1CCCC2 = -3.4

The recorded differential viability (reversal) for CCCCCCn1c(SCCCC)nc2c1c(=O)[nH]c(=O)n2C is 0.76

Record COc1cccc(NC(=O)CN2CCN(c3ccccc3F)CC2)c1 , field differential viability (reversal): 1.8

// Cc1ccccc1N(C)S(=O)(=O)c1ccc2[nH]cc(C(=O)NCC3CCCO3)c(=O)c2c1 (stereo not drawn) : differential viability (reversal) value = 4.24

----------
Listed below: viability values for each entry.
Test: reversal of MRP1-mediated doxorubicin resistance, pilot screen, H69AR cells, doxorubicin co-treatment (AID 601)
Details: H69AR cells + 2 uM doxorubicin, CellTiter-Glo, 72 h; measured here: viability with 2 uM doxorubicin; at 10 µM; stronger effect = lower value
Field: numeric (%). Do not append units.

Here's what some known entries look like.
COc1ccc(-c2nc3c(c(=O)n(C)c(=O)n3C)n2CC2CC(c3ccccc3)=NO2)cc1OC (stereo unspecified) ... 4.58
COc1ccc(CC(NC(C)=O)C(=O)NC2CCN(C(=O)Nc3ccc(C#N)cc3)CC2)cc1OC (stereo unspecified) ... 97.3
Cc1cc(NC(=O)CN2CCC(O)(c3cccc(F)c3)CC2)no1 ... 86.6

Reported viability for CN1C(=S)SC(C)(NO)C1(C)C (stereo unspecified) was 98.4

GET /value?item= CCn1cc(C(=O)Nc2cc3c(cc2NC(C)=O)OCCO3)c(=O)c2ccc(C)nc21 &field=viability returns 95

Notebook: Cc1ccc(S(=O)(=O)Cc2ccc(C(=O)NCc3ccc4c(c3)OCO4)o2)cc1 , viability read as 87.3

----------
Assay: SK-BR-3 cell growth inhibitors, pilot screen, 24 h, human (AID 572);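 note: compound exposure lasted between 18 and 24 h rather than exactly 24 h; 100% = carrier-treated control wells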
Conditions: SK-BR-3 viability, CellTiter-Glo luminescence, at 10 µM, stronger effect = lower value
OUTCOME MEASURE: viability (%)
Dear colleague, please return just the value in %, with no unit written.

O=C(Cn1nnc(-c2cccc(C(F)(F)F)c2)n1)NC(=O)NCc1ccco1 ... 89
Cc1ccccc1CN1CCN(CC(=O)NCc2ccccc2)C1=O ... 113
O=C(O)CC1=C(O)C(=O)N(c2ccccc2)C1c1ccccc1 (configuration not stated) ... 102

# viability of COCCCNC(=O)c1ccc2c(c1)OCO2 = 96.5

viability in this record for COC(=O)c1ccc(CSc2nnc(-c3ccncc3)o2)o1 : 110

----------
Assay: 384-well plate pilot, post-Golgi transport modulator project, inhibition of yeast transport mutant growth (AID 636)
Settings: absorbance 615 nm, about 18 h, stronger effect = higher value
Each entry below carries its reported inhibition.
Give the value in % but do not write % after it.

CCOC(=O)N1CCN(C(=O)CSc2nnc(Cc3ccccc3)o2)CC1 ... 0.27

For record CCc1nn2c(=O)cc(CSc3nc4sc5c(c4c(=O)n3C)CCCC5)nc2s1 the listed inhibition is -0.65

Sure, the documented inhibition for CCOc1ccc(-c2nc(C#N)c(N3CCCCCC3)o2)cc1 is 0.64

Consider Cc1cc2c(c(=O)n1CCc1ccccc1)C(C(C)C)C(C#N)=C(N)O2 (centres undefined) . Its measured inhibition is -4.87
